System: HCT-15 colon
assay.text: NCI tumour cell line growth inhibition, 48 h
observable: TGI

CC(C)(C#N)c1cc(C(=O)Nc2cc(Nc3ncccc3-c3ncnc4nc[nH]c34)ccc2F)cc(C(F)(F)F)c1 ... > 2.22 µM
O=C1OCC/C1=C/c1ccc(N=Nc2c(O)ccc3ccccc23)cc1 ... 60.7 µM
C=C=C(Sc1ccccc1)C(C)(C)OC(C)=O ... 46.9 µM
FC(F)(F)c1ccc(-c2cnc(Cl)nc2NCc2cc(C(F)(F)F)cc(C(F)(F)F)c2)cc1 ... > 100 µM
COc1ccc(/C=C2\CCC(CN(C)C)C2=O)cc1OC (stereo not given) ... 8.81 µM
CC1(C)CC[C@]2(C(=O)N3CCOCC3)CC[C@]3(C)C(=CC[C@@H]4[C@@]5(C)C/C(=C/c6ccncc6)C(=O)C(C)(C)[C@@H]5CC[C@]43C)[C@@H]2C1 ... 11 µM
CCN(CC)C(=S)N=Nc1c(O)[nH]c2ccccc12 ... 19.6 µM
CC(C)(CO)NC(=O)Nc1c(C(F)(F)F)cc(-c2ccccc2)[nH]c1=O ... > 100 µM

QUERY: For the molecule shown here, `Cn1cc(-c2ccc(-c3cn(C)c4ccc(Cl)cc34)s2)c2cc(Cl)ccc21` , give the reported TGI.
RESULT: > 100 µM

QUERY: For the molecule shown here, CC(C)C/C=C/C1=NN(c2cccc(S(=O)(=O)O)c2)C2(C1)SCC(=O)N2c1nc2ccccc2s1 (stereo not given) , give the reported TGI.
RESULT: > 100 µM

QUERY: For the molecule shown here, `O=c1[nH]c(-c2ccccc2)nc2c1sc1nc3ccccc3n12` , give the reported TGI.
RESULT: > 100 µM

QUERY: For the molecule shown here, `CC(C)C[C@H](NC(=O)[C@@H](O)[C@H](N)Cc1ccc([N+](=O)[O-])cc1)C(=O)O` , give the reported TGI.
RESULT: > 25 µM

QUERY: For the molecule shown here, `Cc1c(Cl)cccc1NC1=C(Cl)C(=O)N(Cc2ccccc2)C1=O` , give the reported TGI.
RESULT: 18 µM

QUERY: For the molecule shown here, CC(=O)NC1CC2Oc3ccc(C)cc3C(C)(O2)C1O (stereo not given) , give the reported TGI.
RESULT: > 100 µM

QUERY: For the molecule shown here, `O=c1oc(-c2ccccc2)c(-c2ccccc2)n1-c1ccc(Br)cc1` , give the reported TGI.
RESULT: > 100 µM

QUERY: For the molecule shown here, CCOP(=O)(OCC)C1=C(c2ccccc2)OC(N)=C(C#N)C1c1ccc(Cl)cc1 (stereo not given) , give the reported TGI.
RESULT: > 100 µM

QUERY: For the molecule shown here, `Cn1c(=O)c2c(ncn2CCCCOc2ccc3c(c2)[n+]([O-])nc(N)[n+]3[O-])n(C)c1=O` , give the reported TGI.
RESULT: > 100 µM

The origin of these recorded values is PubChem BioAssay (NCI).
